# ASSAY_PROCEDURE: protein stability index of a GFP-peptide fusion (yeast GPS) (PSI 1-4); higher = more stable; sorted into four equal gates, so the index is relative within each strain
# RUN_PARAMETERS: ubr1∆
Rule: protein stability index under 3 gives no (0), otherwise yes (1).

# SEQUENCE_CODE, DISCRETE_LABEL
rows = [
    ("SFKGSPNERKAKQAKIR [SNF2]", "yes (1)"),
    ("KHLEDNTLLVTGPFKVN [RPL6B]", "no (0)"),
    ("RIMSTRCMMAAQYFYSG [DIS3]", "no (0)"),
    ("ISTAKAWGALITTFVKR [YML103C/NUP188]", "no (0)"),
    ("PEGRLYQVEYAFKATNQ [SCL1]", "no (0)"),
    ("IAATGLNQINGLNNDFL [GRR1]", "yes (1)"),
    ("DEELVSHFVSAVSTIAS [RPP0]", "no (0)"),
    ("LNQLDGFETSKNIKIIM [RPT6]", "no (0)"),
    ("KLEGSENSEPPALESSP [SNF2]", "yes (1)"),
    ("NFKDMSHVNKYGLIRGL [PRP8]", "no (0)"),
    ("YMEKGTQLDDLQHELMI [YML103C/NUP188]", "no (0)"),
    ("LTVIEKLDSKKILPTDI [SRP68]", "no (0)"),
    ("VIMALMLMSKIGDVDGL [POP5]", "no (0)"),
]

----------
# ASSAY_PROCEDURE: protein stability index of a GFP-peptide fusion (yeast GPS) (PSI 1-4); higher = more stable; sorted into four equal gates, so the index is relative within each strain
# RUN_PARAMETERS: ubr1∆
Each record's protein stability index is compared with lower = under 2, middle = from 2 up to 3, upper = 3 and over to give its class.

# SEQUENCE_CODE, DISCRETE_LABEL
records = [
    ("RSMLTVVRNMLALTTLS [YCG1]", "middle"),
    ("VIFVERATPATLTELKD [SRB2]", "upper"),
    ("ASDESLLRYGGAFTIAL [RPN2]", "upper"),
    ("IHFADVAHITTKSPAYP [RGR1]", "middle"),
    ("QRVFKPVDITMMENYQN [PRP8]", "middle"),
    ("NDIFERIATEASKLAAY [HTB1]", "lower"),
    ("GSIEEPELNVSLNLTDD [MCD1]", "upper"),
    ("ANNDINSLLSNFNDIPP [YDL088C/ASM4]", "upper"),
    ("QVLLDEEYKQLVKDRKF [RPO21]", "middle"),
    ("VTLSQLVSVTSTLQHFQ [MED8]", "lower"),
    ("IDEPIKSIMDGIHDGHI [FAS1]", "lower"),
    ("IDSTDHIRKASSKKSKR [LRP1]", "middle"),
    ("NEWIKAQEDVPYLLPYI [QCR7]", "middle"),
    ("KRAFTKKVASANATAAE [RPL16A]", "middle"),
    ("GTGNNNKLNFIVDDKQE [DIB1]", "lower"),
]

----------
# ASSAY_PROCEDURE: protein stability index of a GFP-peptide fusion (yeast GPS) (PSI 1-4); higher = more stable; sorted into four equal gates, so the index is relative within each strain
# RUN_PARAMETERS: doa10∆
Respond with Satisfied for protein stability index values of 3 and above, Not satisfied for values below.

# SEQUENCE_CODE, DISCRETE_LABEL
measured = [
    ("SLLASKSTYRTPNFDDV [RIP1]", "Not satisfied"),
    ("DEFIKTHEDLPKEVDGL [IRR1]", "Satisfied"),
    ("DQTFPINCNKETIENVK [ECM29]", "Satisfied"),
    ("ANEQLKLFNRIVERETN [CSN12]", "Not satisfied"),
    ("LYNDADVLTLENIQEGT [CDC53]", "Satisfied"),
    ("SSQPLEPLSDTEEPDLA [DSN1]", "Not satisfied"),
    ("NFLQESYEVEHVIQIPL [TAF14]", "Not satisfied"),
]
